The reader will find reported MIC MRSA values listed item by item below.
- Tested on: Methicillin-resistant S. aureus ATCC 43300
- Experiment notes: microbe, parasite or virus in culture
- Assay context: ATCC 43300, 24 h
Positions of bridges follow the written chain, without caps; N, C: chain ends. Residues, ends and D or L forms follow the SMILES beside them. Chains are numbered I, II in the order given. *: point of attachment. Myristoyl = CCCCCCCCCCCCCC(=O)*
Readout kind: MIC MRSA

- CCCCCCCCCCCCCC(=O)N[C@@H](CCCCN)C(=O)N[C@@H](CCCCN)C(=O)N[C@@H](CCCCN)C(=O)N[C@@H](CSSC[C@H](NC(=O)[C@H](CCCCN)NC(=O)[C@H](CCCCN)NC(=O)[C@H](CCCCN)NC(=O)CCCCCCCCCCCCC)C(=O)O)C(=O)O [Compound 15a, Myristoyl-KKKC-OH – disulphide dimer] (I: Myristoyl-KKKC-OH / II: Myristoyl-KKKC-OH; disulfide I:4-II:4): >8 µg/mL
- CCCCCCCCCCCC(=O)N[C@@H](CCCCN)C(=O)N[C@@H](CCCCN)C(=O)N[C@@H](CCCCN)C(=O)N[C@@H](CCCCNC(=O)[C@H]1NC(=O)[C@H]2NC(=O)[C@H](NC(=O)[C@@H]3NC(=O)[C@H](CC(N)=O)NC(=O)[C@H](NC(=O)[C@@H](CC(C)C)NC)[C@H](O)c4ccc(c(Cl)c4)Oc4cc3cc(c4O[C@@H]3O[C@H](CO)[C@@H](O)[C@H](O)[C@H]3O[C@H]3C[C@](C)(N)[C@H](O)[C@H](C)O3)Oc3ccc(cc3Cl)[C@H]2O)c2ccc(O)c(c2)-c2c(O)cc(O)cc21)C(=O)O [Compound 37, nC11CO-KKK-K(Vancomycin)-OH]: 0.005 µg/mL
- CCCCCCCCCCCCCC(=O)NCC(=O)N[C@@H](CO)C(=O)N[C@@H](CCCCN)C(=O)N[C@@H](CCCCN)C(=O)N[C@@H](CCCCN)C(=O)N[C@@H](CS)C(=O)O [Compound 14a, Myristoyl-GSKKKC-OH] (Myristoyl-GSKKKC-OH): >8 µg/mL
